- System: ATP;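 note: ATP exposure 15 min at 22 °C before imaging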
- EXPERIMENTAL PROTOCOL: switch fluorescence ratio, 500 uM ATP over buffer (Cy3 cluster intensity, sum of 5 cycles each) (fold (ratio)); higher = stronger signal-on switching upon ATP binding; sequences stand for … in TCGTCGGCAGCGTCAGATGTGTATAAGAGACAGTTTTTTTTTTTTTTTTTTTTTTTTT…TC
- EXPERIMENTAL CONTEXT: aptamer strand: ATP DNA aptamer (quencher-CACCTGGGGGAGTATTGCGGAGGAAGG + anchor), 100 nM annealed; ATP concentration: 500 uM
MEASURED METRIC: switch fluorescence ratio

>>> print(df.to_string())
    item_sequence            measured_metric  result_number
 0     TTCGTTAGAG  switch fluorescence ratio           0.98
 1     CATGCAAATA  switch fluorescence ratio           1.07
 2     AGTGGGGGGT  switch fluorescence ratio          0.991
 3     TGCGGGGGGT  switch fluorescence ratio           1.02
 4     TCTGGTATGA  switch fluorescence ratio           1.01
 5     ACCGGGGTGG  switch fluorescence ratio          0.991
 6     GGGGGACTTT  switch fluorescence ratio           1.08
 7     GTCCTTGGTC  switch fluorescence ratio          0.982
 8     TTCCTGCTTG  switch fluorescence ratio           1.36
 9     GGACTGGAAG  switch fluorescence ratio           1.19
10     TGTTAGTAAT  switch fluorescence ratio           1.02
11     ACTTGAAGTG  switch fluorescence ratio          0.997
12     TGACTACCAT  switch fluorescence ratio           1.07

---

- Tested on: ATP;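 note: ATP exposure 15 min at 22 °C before imaging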
- EXPERIMENTAL PROTOCOL: switch fluorescence ratio, 500 uM ATP over buffer (Cy3 cluster intensity, sum of 5 cycles each) (fold (ratio)); higher = stronger signal-on switching upon ATP binding; sequences stand for … in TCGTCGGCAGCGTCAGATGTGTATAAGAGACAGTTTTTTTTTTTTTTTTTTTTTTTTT…TC
- EXPERIMENTAL CONTEXT: aptamer strand: ATP DNA aptamer (quencher-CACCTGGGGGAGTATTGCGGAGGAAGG + anchor), 100 nM annealed; ATP concentration: 500 uM
MEASURED METRIC: switch fluorescence ratio

>>> print(df.to_string())
    item_sequence  result_number
 0     TTTGTTCTGG           1.49
 1     AGGTTGCAGC          0.992
 2     TGGGGACCCA          0.991
 3     TTGTTCAGTT           1.02
 4     CGAATTTGCT           1.01
 5     ATAGAGGCTA          0.992
 6     TTTGAGAGTT           1.03
 7     CATCGGGACG           1.04
 8     TTTAAAGGGA           1.06
 9     AACGAAGATT           1.01
10     TGAGGTACCG           1.02
11     AGGGTGGGTG           1.01
12     ATATCAGCAT           1.06
13     TTTTCCATTA              1
14     GCCGTAACGG          0.982
15     GTATTTCGGT          0.972
16     TCCAGCTGTG          0.992
17     GCCAGTAATA            1.1
18     TTTAGATCTT          0.981
19     TAAGCGGGGG          0.999
20     CAGGCGTCGT           1.03
21     ACCAGGGTGG           1.03
22     ATAACAAGGG           1.04
23     TGTGTTTTTA           1.01
24     ATCAGGGTTT              1
25     TGTTGTGTTT          0.989
26     GGGAAATAGT          0.988
27     GGTTGGCAGG              1
28     GGGCGGGGGA           1.06
29     GATGTAGCTT           1.03
30      CAGCGTCGT           1.02
31     ACGACTTCTT          0.989
32     AAAGAGGTTC           1.04
33     TTTTATGACA           1.02
34     CGACATGAAT           1.04
35     GCTGGGTCTG              1
36     TAATAAAGGT          0.995
37     GGAAGGTTCG           1.01
38     CCACACGAGA           1.18
39     CGATGAAGGC           1.07
40     GTAGGGTGCT           1.04

---

- System: ATP;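 note: ATP exposure 15 min at 22 °C before imaging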
- EXPERIMENTAL PROTOCOL: switch fluorescence ratio, 500 uM ATP over buffer (Cy3 cluster intensity, sum of 5 cycles each) (fold (ratio)); higher = stronger signal-on switching upon ATP binding; sequences stand for … in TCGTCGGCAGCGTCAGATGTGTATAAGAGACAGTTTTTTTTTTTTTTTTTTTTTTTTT…TC
- EXPERIMENTAL CONTEXT: aptamer strand: ATP DNA aptamer (quencher-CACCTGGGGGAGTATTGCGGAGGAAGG + anchor), 100 nM annealed; ATP concentration: 500 uM
MEASURED METRIC: switch fluorescence ratio

>>> print(df.to_string())
    item_sequence  subject_of_test  result_number
 0     GGCTGTTAAA              ATP          0.978
 1     TGCTTAACAT              ATP           1.01
 2     ATGTCAAGGA              ATP          0.985
 3     GATATTGGGG              ATP          0.981
 4     TTCAGTTGCA              ATP           1.01
 5     AGGTCCCTGT              ATP           1.01
 6     TCGTACGAAG              ATP              1
 7     GTTTCGGGGT              ATP              1
 8     AATAAGGATA              ATP           1.01
 9     AGTCCAATGT              ATP          0.993
10     TTTTGCCCGG              ATP           1.01
11     GCGGTACAGC              ATP          0.978
12     CAGTGGTTGG              ATP           1.01
13     TGGGGACGAC              ATP           1.02
14     GGTCGTCTTG              ATP          0.996
15     ATTCCTTGTA              ATP          0.989
16     CAATAGGAGA              ATP          0.981
17      AGCTGCATG              ATP          0.997
18     ATTAAAGGAT              ATP          0.995
19     GAAGGGGGAT              ATP           1.02
20      CCGAATTTT              ATP           1.02
21     TTCTGTGGGG              ATP           1.01
22     AAGGAGTTTT              ATP          0.973
23     TTTGTGGGTC              ATP          0.995
24     TAAGGACGAC              ATP           1.02
25     GTTGACGGTG              ATP          0.982
26     ACTCGGCCGG              ATP              1
27     ATCGGTTCGG              ATP          0.993
28     AAACGGAGGG              ATP          0.996
29     TTCTTTCGTC              ATP          0.979
